assay: In vitro stability in mouse hepatocytes; type: in vitro ADME

{"chemical structure": "O=C(NO)c1ccc(CN(C2CC2)S(=O)(=O)c2cc(F)c(F)c(F)c2F)cc1", "scale unit": "µL/min/1e6 cells", "hepatocyte CLint at 2 h, 1 μM": 37.6}

* * *

system: KHYG-1; assay: Cytotoxicity assay (Cell Titer-Blue, 72 h); assay type: cell-based; conditions: ANKL, one representative of three experiments, read-out: IC50 (heat map) KHYG-1

{"chemical structure": "O=C(CCCCCCNC(=O)c1cnc(N(c2ccccc2)c2ccccc2Cl)nc1)NO", "IC50 (nM)": 1200}

* * *

biological target: HDAC3 (Homo sapiens, UniProt O15379); construct: The full-length human HDACs were recombinantly expressed and purified from SF9 insect cells; host or cells: SF9 insect cells; assay: HDAC EMSA activity assay (Nanosyn); format: biochemical; details: read-out: IC50 HDAC3
Sequence (O15379 whole entry): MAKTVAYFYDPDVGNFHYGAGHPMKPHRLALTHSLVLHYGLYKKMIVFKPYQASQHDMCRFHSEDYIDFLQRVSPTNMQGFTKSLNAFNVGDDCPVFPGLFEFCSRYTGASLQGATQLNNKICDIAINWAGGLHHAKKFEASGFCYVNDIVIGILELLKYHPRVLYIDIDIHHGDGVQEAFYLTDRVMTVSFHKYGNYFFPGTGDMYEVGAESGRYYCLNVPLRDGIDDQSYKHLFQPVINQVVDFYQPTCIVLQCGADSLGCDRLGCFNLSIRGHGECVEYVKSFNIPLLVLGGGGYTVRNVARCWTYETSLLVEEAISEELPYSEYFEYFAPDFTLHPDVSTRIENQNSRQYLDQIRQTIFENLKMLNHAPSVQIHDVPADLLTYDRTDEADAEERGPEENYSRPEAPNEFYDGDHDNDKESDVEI
Sequence (Q9Y618 395-489 partner limits assumed): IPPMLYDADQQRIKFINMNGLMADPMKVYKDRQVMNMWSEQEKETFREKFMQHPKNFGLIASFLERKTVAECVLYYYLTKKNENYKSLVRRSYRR
measured metric: IC50

{"chemical structure": "O=C(NO)c1ccc(CN(C2CC2)S(=O)(=O)c2cc(F)c(F)c(F)c2F)cc1", "measured metric": "IC50", "value measured": "> 1 µM"}

* * *

tested on: MV4-11; test: Cytotoxicity assay (Cell Titer-Blue, 72 h); format: cell-based; settings: Homo sapiens, MV4-11, read-out: In cellulo IC50 MV4-11

{"compound": "O=C(CCCCCCNC(=O)c1cnc(N(c2ccccc2)c2ccccc2)nc1)NO [Ricolinostat, reference compound]", "IC50 (nM)": 810}

* * *

test: In vivo PK study in CD-1 male mice; conditions: mouse, plasma, CD-1 mice, IP, 20 mg/kg, read-out: In vivo t1/2
List of half-life values.
measured metric: half-life (min)

{"compound": "O=C(NO)c1ccc(CN(C2CC2)S(=O)(=O)c2cc(F)c(F)c(F)c2F)cc1 [Compound 14]", "value measured": 63}
{"compound": "O=C(CCCCCCNC(=O)c1cnc(N(c2ccccc2)c2ccccc2Cl)nc1)NO [Citarinostat]", "value measured": 15}

* * *

molecular target: HDAC6 (Homo sapiens); test: HDAC EMSA activity assay (Nanosyn); format: biochemical; parameters: The full-length human HDACs were recombinantly expressed and purified from SF9 insect cells; host or cells: SF9 insect cells; settings: EMSA (Nanosyn); read-out: IC50 HDAC6
Sequence (Q9UBN7 whole entry): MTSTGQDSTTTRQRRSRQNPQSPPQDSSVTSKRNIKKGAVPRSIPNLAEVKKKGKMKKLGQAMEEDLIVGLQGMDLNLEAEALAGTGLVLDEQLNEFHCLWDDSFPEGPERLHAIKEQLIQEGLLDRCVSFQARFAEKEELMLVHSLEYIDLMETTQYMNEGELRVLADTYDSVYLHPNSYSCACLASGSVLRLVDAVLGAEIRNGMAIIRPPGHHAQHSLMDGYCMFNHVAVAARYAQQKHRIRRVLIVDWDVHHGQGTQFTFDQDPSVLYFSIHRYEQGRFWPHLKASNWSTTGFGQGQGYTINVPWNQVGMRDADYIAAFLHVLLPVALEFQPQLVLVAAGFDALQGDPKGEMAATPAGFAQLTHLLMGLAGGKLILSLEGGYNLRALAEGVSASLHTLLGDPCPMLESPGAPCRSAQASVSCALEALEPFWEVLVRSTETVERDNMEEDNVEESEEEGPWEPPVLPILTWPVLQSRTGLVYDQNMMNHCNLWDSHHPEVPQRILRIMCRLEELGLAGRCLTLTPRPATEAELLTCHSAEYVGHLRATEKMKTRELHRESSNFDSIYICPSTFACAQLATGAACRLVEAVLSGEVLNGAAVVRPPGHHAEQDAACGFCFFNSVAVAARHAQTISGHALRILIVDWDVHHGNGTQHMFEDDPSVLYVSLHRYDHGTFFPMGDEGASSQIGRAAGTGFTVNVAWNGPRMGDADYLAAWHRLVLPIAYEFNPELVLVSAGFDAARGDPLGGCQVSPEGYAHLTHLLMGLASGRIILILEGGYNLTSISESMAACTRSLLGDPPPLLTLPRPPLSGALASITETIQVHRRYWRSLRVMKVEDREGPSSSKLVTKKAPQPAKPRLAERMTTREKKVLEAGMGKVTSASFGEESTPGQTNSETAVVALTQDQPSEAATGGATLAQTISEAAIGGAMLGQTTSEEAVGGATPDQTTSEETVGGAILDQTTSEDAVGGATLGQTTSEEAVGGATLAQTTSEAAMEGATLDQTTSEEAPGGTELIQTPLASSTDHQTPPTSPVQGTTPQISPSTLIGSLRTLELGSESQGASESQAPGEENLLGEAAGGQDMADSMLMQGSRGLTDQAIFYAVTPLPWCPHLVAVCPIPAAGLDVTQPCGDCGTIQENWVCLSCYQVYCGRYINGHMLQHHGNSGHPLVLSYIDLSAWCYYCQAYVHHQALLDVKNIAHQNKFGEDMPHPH
pIC50: −log10 of the molar value.
Overview of recorded pIC50 for various compounds
measured metric: pIC50

{"compound": "O=C(NO)c1ccc(CNS(=O)(=O)c2c(F)c(F)c(F)c(F)c2F)cc1 [Compound 2]", "measured metric": "pIC50", "value measured": 6.41}
{"compound": "O=C(NO)c1ccc(CN(C2CC2)S(=O)(=O)c2c(F)c(F)c(F)c(F)c2F)cc1 [Compound 5]", "measured metric": "pIC50", "value measured": 9.05}
{"compound": "O=C(NO)c1ccc(CN(C2CC2)S(=O)(=O)c2c(F)c(F)c(Cl)c(F)c2F)cc1 [Compound 13]", "measured metric": "pIC50", "value measured": 7.15}
{"compound": "O=C(NO)c1ccc(CNC(=O)c2c(F)c(F)c(F)c(F)c2F)cc1 [Compound 1]", "measured metric": "pIC50", "value measured": 8.23}
{"compound": "O=C(NO)c1ccc(CN(C2CC2)S(=O)(=O)c2cc(F)c(F)c(F)c2F)cc1 [Compound 14]", "measured metric": "pIC50", "value measured": 8.07}

* * *

molecular target: HDAC6 (Homo sapiens); assay: HDAC EMSA activity assay (Nanosyn); type: biochemical; design: The full-length human HDACs were recombinantly expressed and purified from SF9 insect cells; host or cells: SF9 insect cells; details: recombinant enzyme, EMSA (Nanosyn); read-out: In vitro IC50 HDAC6
measured metric: IC50 (nM)

{"chemical structure": "O=C(NO)c1ccc(CN(C2CC2)S(=O)(=O)c2c(F)cc(F)cc2F)cc1", "measured metric": "IC50", "value measured": 8}
{"chemical structure": "O=C(NO)c1ccc(CN(C2CC2)S(=O)(=O)c2c(F)c(Cl)c(F)c(Cl)c2F)cc1", "measured metric": "IC50", "value measured": 15}
{"chemical structure": "O=C(NO)c1ccc(CN(C2CC2)S(=O)(=O)c2c(F)cc(F)c(Cl)c2F)cc1", "measured metric": "IC50", "value measured": 9}
{"chemical structure": "CC(C)N(Cc1ccc(C(=O)NO)cc1)S(=O)(=O)c1c(F)c(F)c(F)c(F)c1F", "measured metric": "IC50", "value measured": 4}
{"chemical structure": "O=C(NO)c1ccc(CN(C2CC2)S(=O)(=O)c2ccc(F)cc2)cc1", "measured metric": "IC50", "value measured": 11}
{"chemical structure": "O=C(NO)c1ccc(CN(C2CC2)S(=O)(=O)c2cc(F)c(F)c(F)c2)cc1", "measured metric": "IC50", "value measured": 14}
{"chemical structure": "O=C(NO)c1ccc(CN(C2CC2)S(=O)(=O)c2c(F)c(F)cc(F)c2F)cc1", "measured metric": "IC50", "value measured": 10}
{"chemical structure": "O=C(NO)c1ccc(CNC(=O)c2c(F)c(F)c(F)c(F)c2F)cc1", "measured metric": "IC50", "value measured": 6}
{"chemical structure": "O=C(NO)c1cccc(CN(C2CC2)S(=O)(=O)c2c(F)c(F)c(F)c(F)c2F)c1", "measured metric": "IC50", "value measured": 488}
{"chemical structure": "CN(Cc1ccc(C(=O)NO)cc1)S(=O)(=O)c1c(F)c(F)c(F)c(F)c1F", "measured metric": "IC50", "value measured": 2}

* * *

assay: In vivo PK study in CD-1 male mice; conditions: mouse, plasma, CD-1 mice, IP, 20 mg/kg, read-out: In vivo AUClast (overall exposure)
measured metric: AUC(0-t) (ng·h/mL)

{"chemical structure": "O=C(CCCCCCNC(=O)c1cnc(N(c2ccccc2)c2ccccc2Cl)nc1)NO", "value measured": 4160}

* * *

experiment: In vivo PK study in CD-1 male mice; conditions: mouse, plasma, CD-1 mice, IP, 20 mg/kg
measured metric: MRT at 24 h (h)

{"compound": "O=C(NO)c1ccc(CN(C2CC2)S(=O)(=O)c2cc(F)c(F)c(F)c2F)cc1 [Compound 14]", "measured metric": "MRT at 24 h", "value measured": 2.1}

* * *

target: HDAC11 (Homo sapiens, UniProt Q96DB2); construct: The full-length human HDACs were recombinantly expressed and purified from SF9 insect cells; host or cells: SF9 insect cells; assay: HDAC EMSA activity assay (Nanosyn); assay type: biochemical; conditions: read-out: IC50 HDAC11
Sequence (Q96DB2 whole entry): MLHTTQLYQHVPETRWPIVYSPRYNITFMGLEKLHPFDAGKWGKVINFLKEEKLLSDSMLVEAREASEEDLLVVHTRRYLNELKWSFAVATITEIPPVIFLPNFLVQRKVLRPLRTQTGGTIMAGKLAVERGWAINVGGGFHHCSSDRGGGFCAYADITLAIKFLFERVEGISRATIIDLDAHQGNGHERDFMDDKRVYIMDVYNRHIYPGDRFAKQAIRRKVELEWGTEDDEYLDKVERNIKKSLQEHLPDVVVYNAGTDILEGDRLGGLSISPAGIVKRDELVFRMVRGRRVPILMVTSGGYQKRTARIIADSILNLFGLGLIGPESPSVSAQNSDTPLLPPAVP

{"compound": "O=C(NO)c1ccc(CN(C2CC2)S(=O)(=O)c2cc(F)c(F)c(F)c2F)cc1 [Compound 14]", "IC50": "> 1000 nM"}

* * *

Target: HDAC6 (Homo sapiens)
Assay: Determination of Ki (Kon kinetics)
Settings: time-dependent inhibition Kon experiment
Description: Serial dilutions of compound were mixed with 3 nM HDAC6 enzyme and substrate peptide in assay buffer. Progress curves were acquired without preincubation for ∼5 h on a Labchip3000 instrument. Progress curves in the presence of compound were fit with the following equation: ((A + (Vs × x)) + (((Vo – Vs) × (1 – exp((−1 × Kobs) × t)))/Kobs)). To determine observed rate of inhibition, Vo was locked to that in control (Vi, DMSO only). […]
pKi: −log10 of the molar value.
measured metric: pKi

{"chemical structure": "O=C(NO)c1ccc(CN(C2CC2)S(=O)(=O)c2cc(F)c(F)c(F)c2F)cc1", "measured metric": "pKi", "value measured": 7.76}

* * *

experiment: Glutathione stability / reactivity assay; assay type: in vitro ADME; settings: PBS with 5 mM glutathione (GSH); 5 mM GSH, PBS; read-out: half-life in incubation with GSH

{"chemical structure": "O=C(NO)c1ccc(CN(C2CC2)S(=O)(=O)c2c(F)c(F)c(F)c(F)c2F)cc1", "half-life at 5 μM": "~20 min"}

* * *

biological target: HDAC9 (Homo sapiens, UniProt Q9UKV0); construct: The full-length human HDACs were recombinantly expressed and purified from SF9 insect cells; assay: HDAC EMSA activity assay (Nanosyn)
Sequence (Q9UKV0 whole entry): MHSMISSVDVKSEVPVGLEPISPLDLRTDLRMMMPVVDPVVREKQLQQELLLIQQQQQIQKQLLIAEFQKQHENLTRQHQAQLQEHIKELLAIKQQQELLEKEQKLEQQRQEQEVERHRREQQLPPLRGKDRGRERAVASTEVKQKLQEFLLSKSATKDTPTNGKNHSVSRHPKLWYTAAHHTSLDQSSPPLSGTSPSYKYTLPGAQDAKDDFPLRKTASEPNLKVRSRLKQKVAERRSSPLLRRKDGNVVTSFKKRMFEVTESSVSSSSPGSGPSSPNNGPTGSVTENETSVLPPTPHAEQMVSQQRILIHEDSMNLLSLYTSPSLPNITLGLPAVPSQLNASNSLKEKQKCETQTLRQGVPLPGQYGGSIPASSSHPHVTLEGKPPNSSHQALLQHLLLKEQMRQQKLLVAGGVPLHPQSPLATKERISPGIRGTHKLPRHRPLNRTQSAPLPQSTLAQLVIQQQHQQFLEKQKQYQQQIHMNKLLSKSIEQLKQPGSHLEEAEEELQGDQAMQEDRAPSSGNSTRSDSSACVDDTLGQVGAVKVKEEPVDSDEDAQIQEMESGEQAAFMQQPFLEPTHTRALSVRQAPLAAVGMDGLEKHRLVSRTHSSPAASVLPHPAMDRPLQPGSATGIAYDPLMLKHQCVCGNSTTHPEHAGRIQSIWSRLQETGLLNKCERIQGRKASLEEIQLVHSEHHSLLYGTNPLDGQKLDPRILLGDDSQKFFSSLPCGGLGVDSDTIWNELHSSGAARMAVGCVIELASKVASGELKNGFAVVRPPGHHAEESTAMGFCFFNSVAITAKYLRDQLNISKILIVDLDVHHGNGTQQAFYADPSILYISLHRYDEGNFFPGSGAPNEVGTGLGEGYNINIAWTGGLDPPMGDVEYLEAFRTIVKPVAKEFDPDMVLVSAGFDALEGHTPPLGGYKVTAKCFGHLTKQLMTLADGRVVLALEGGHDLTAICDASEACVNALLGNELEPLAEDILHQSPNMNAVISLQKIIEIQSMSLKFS
pIC50: −log10 of the molar value.
measured metric: pIC50

{"chemical structure": "O=C(NO)c1ccc(CN(C2CC2)S(=O)(=O)c2cc(F)c(F)c(F)c2F)cc1", "value measured": "< 6.00"}

* * *

assay: Glutathione stability / reactivity assay; assay type: in vitro ADME; conditions: PBS with 5 mM glutathione (GSH); 5 mM GSH, PBS; read-out: half-life in incubation with GSH
measured metric: half-life at 2 h, 5 µM (min)

{"molecule": "O=C(NO)c1ccc(CN(C2CC2)S(=O)(=O)c2c(F)c(F)c(F)c(F)c2F)cc1 [Compound 5]", "value measured": 20}

* * *

molecular target: HDAC8 (Homo sapiens); construct: The full-length human HDACs were recombinantly expressed and purified from SF9 insect cells; host or cells: SF9 insect cells; experiment: HDAC EMSA activity assay (Nanosyn); format: biochemical; settings: recombinant enzyme, EMSA (Nanosyn); read-out: In vitro IC50 HDAC8
Sequence (Q9BY41 whole entry): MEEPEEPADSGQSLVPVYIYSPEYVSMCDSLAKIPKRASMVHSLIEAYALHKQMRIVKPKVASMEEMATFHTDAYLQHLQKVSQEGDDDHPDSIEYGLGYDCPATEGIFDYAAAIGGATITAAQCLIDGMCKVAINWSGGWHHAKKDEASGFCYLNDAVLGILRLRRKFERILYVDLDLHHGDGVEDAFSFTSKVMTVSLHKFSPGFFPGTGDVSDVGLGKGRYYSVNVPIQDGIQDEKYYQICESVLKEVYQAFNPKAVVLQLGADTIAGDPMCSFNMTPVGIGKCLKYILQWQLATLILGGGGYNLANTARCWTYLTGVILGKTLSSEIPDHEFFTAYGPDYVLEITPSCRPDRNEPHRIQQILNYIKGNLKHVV

{"chemical structure": "O=C(NO)c1cccc(CN(C2CC2)S(=O)(=O)c2c(F)c(F)c(F)c(F)c2F)c1", "target of assay": "HDAC8 (Homo sapiens)", "qual": "=", "IC50 (nM)": 108}
{"chemical structure": "O=C(NO)c1ccc(CN(C2CC2)S(=O)(=O)c2c(F)c(F)c(F)c(F)c2F)cc1", "target of assay": "HDAC8 (Homo sapiens)", "qual": "=", "IC50 (nM)": 29}
{"chemical structure": "O=C(NO)c1ccc(CN(C2CC2)S(=O)(=O)c2c(F)c(F)cc(F)c2F)cc1", "target of assay": "HDAC8 (Homo sapiens)", "qual": "=", "IC50 (nM)": 378}
{"chemical structure": "O=C(NO)c1ccc(CN(C2CC2)S(=O)(=O)c2c(F)c(Cl)c(F)c(Cl)c2F)cc1", "target of assay": "HDAC8 (Homo sapiens)", "qual": "=", "IC50 (nM)": 214}
{"chemical structure": "O=C(NO)c1ccc(CN(C2CC2)S(=O)(=O)c2cc(F)c(F)c(F)c2)cc1", "target of assay": "HDAC8 (Homo sapiens)", "qual": "=", "IC50 (nM)": 273}
{"chemical structure": "O=C(NO)c1ccc(CN(C2CC2)S(=O)(=O)c2c(F)cc(F)c(Cl)c2F)cc1", "target of assay": "HDAC8 (Homo sapiens)", "qual": "=", "IC50 (nM)": 201}
{"chemical structure": "O=C(NO)c1ccc(CN(C2CC2)S(=O)(=O)c2c(F)c(F)c(Cl)c(F)c2F)cc1", "target of assay": "HDAC8 (Homo sapiens)", "qual": ">", "IC50 (nM)": 1000}
{"chemical structure": "O=C(NO)c1ccc(CN(C2CC2)S(=O)(=O)c2ccc(F)cc2)cc1", "target of assay": "HDAC8 (Homo sapiens)", "qual": "=", "IC50 (nM)": 281}
{"chemical structure": "O=C(NO)c1ccc(CNC(=O)c2c(F)c(F)c(F)c(F)c2F)cc1", "target of assay": "HDAC8 (Homo sapiens)", "qual": "=", "IC50 (nM)": 700}
{"chemical structure": "CC(C)N(Cc1ccc(C(=O)NO)cc1)S(=O)(=O)c1c(F)c(F)c(F)c(F)c1F", "target of assay": "HDAC8 (Homo sapiens)", "qual": "=", "IC50 (nM)": 653}
{"chemical structure": "O=C(NO)c1ccc(CNS(=O)(=O)c2c(F)c(F)c(F)c(F)c2F)cc1", "target of assay": "HDAC8 (Homo sapiens)", "qual": ">", "IC50 (nM)": 1000}
{"chemical structure": "CN(Cc1ccc(C(=O)NO)cc1)S(=O)(=O)c1c(F)c(F)c(F)c(F)c1F", "target of assay": "HDAC8 (Homo sapiens)", "qual": "=", "IC50 (nM)": 184}
{"chemical structure": "O=C(NO)c1ccc(CN(C2CC2)S(=O)(=O)c2c(F)cc(F)cc2F)cc1", "target of assay": "HDAC8 (Homo sapiens)", "qual": "=", "IC50 (nM)": 315}
